Biological target: Cin5 (UniProt P40917)
Sequence: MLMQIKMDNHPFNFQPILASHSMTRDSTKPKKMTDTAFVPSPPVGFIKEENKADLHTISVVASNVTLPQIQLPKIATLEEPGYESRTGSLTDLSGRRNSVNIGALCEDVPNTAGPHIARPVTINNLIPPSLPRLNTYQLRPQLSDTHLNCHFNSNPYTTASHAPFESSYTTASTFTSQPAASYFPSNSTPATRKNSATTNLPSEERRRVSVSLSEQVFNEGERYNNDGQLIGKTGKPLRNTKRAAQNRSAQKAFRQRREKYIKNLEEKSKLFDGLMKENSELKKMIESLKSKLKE
Assay: PBM E-score (8-mer binding enrichment) (E-score (-0.5 to 0.5)); higher = stronger / more preferred TF binding
Conditions: protein concentration: 100 nM; construct: GST-full length
Whole data set: some 33,000 sequences, median “E-score (-0.5 to 0.5)” near -0.0059, cut for the highest 2% near 0.26. Only a selection was taken, and the highest values are over-represented in it overall.
The following sequences are listed with their measured PBM E-score values.

| seq-string | test-target | PBM E-score |
| --- | --- | --- |
| CAACGTAA | Cin5 (UniProt P40917) | 0.204 |
| GCAATCGA | Cin5 (UniProt P40917) | 0.0191 |
| GTAATCCA | Cin5 (UniProt P40917) | 0.281 |
| GAACGTAA | Cin5 (UniProt P40917) | 0.297 |
| GAACGTAC | Cin5 (UniProt P40917) | -0.115 |
